target: DQA1*0301/DQB1*0302 (DQ3.2); assay: binding to purified HLA
Property measured: IC50 (nM)
The reply should contain only the number, in nM.

Return IC50 (reported value) for this binder: SYPARYANAMAVGAT [B. lentus .160]
1050

Return IC50 (reported value) for this binder: GTVAALNNSIGVLGV [BPN' Y217L .70]
2070

Return IC50 (reported value) for this binder: GSISYPARYANAMAV [B. lentus 157]
5010

Return IC50 (reported value) for this binder: NGIEWAIANNMDVIN [BPN' Y217L .109]
80
